Assay: chemical genetic growth profiling, strain panel (AID 1159580);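 also: tested at 20 µM; growth read once vehicle control cultures reached saturation at 30 °C; 1 = growth at the plate median or of vehicle wells; lower values mean less growth of the strain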
Settings: S. cerevisiae deletion strains, growth OD, locus YLR357W, strain rsc2, stronger effect = lower value
Hit rate of the full screen: of about 5,500 compounds, about 2,000 (36%) were called active. Inconclusive results (about 18%) are left out. Some of the results follow.
Listing of entries alongside the reported normalized growth.

>  <Compound>
O=c1c(-c2ccc(O)cc2)coc2cc(O)cc(O)c12

>  <normalized growth>
0.987

$$$$
>  <Compound>
O=C(O)/C=C(\CC(=O)O)C(=O)O

>  <normalized growth>
0.991

$$$$
>  <Compound>
COc1c(O)cccc1O

>  <normalized growth>
1.03

$$$$
>  <Compound>
C[n+]1cc2c3c(ccc2c2ccc4cc5c(cc4c21)OCO5)OCO3

>  <normalized growth>
0.844

$$$$
>  <Compound>
CC1=CCc2c(cc3oc(C)cc(=O)c3c2O)OC1

>  <normalized growth>
1.01

$$$$
>  <Compound>
COc1cc([C@@H]2c3cc4c(cc3[C@H](OC(C)=O)[C@H]3COC(=O)[C@H]23)OCO4)cc(OC)c1OC

>  <normalized growth>
1.06

$$$$
>  <Compound>
COc1c(O)cc2c(-c3ccccc3)cc(=O)oc2c1OC

>  <normalized growth>
0.95

$$$$
>  <Compound>
COc1cc([C@@H]2c3cc4c(cc3C(O[C@@H]3O[C@@H]5CO[C@@H](c6cccs6)OC5[C@H](O)[C@H]3O)C3COC(=O)[C@@H]32)OCO4)cc(OC)c1O (stereo not given in full)

>  <normalized growth>
0.98

$$$$
>  <Compound>
CN1CCN2c3ccccc3Cc3ccccc3C2C1 (stereo not given)

>  <normalized growth>
1.01

$$$$
>  <Compound>
CCOC(=O)C1C(C=C(C)C)C1(C)C (stereo not given)

>  <normalized growth>
0.925

$$$$
>  <Compound>
CC[C@]12C=CCN3CC[C@@]4(c5ccc(OC)cc5N(C)C4[C@@](O)(C(=O)OC)[C@@H]1OC(C)=O)[C@@H]32 (stereo not given in full)

>  <normalized growth>
1.02

$$$$
>  <Compound>
CC(=O)N(O)CCCCCNC(=O)CCC(=O)N(O)CCCCCNC(=O)CCC(=O)N(O)CCCCCN

>  <normalized growth>
0.882

$$$$
>  <Compound>
CN1CCOC(c2ccccc2)c2ccccc2C1 (stereo not given)

>  <normalized growth>
0.954

$$$$
>  <Compound>
CC(=O)Oc1cc(-c2coc3cc(OC(C)=O)c(OC(C)=O)c(OC(C)=O)c3c2=O)cc(OC(C)=O)c1OC(C)=O

>  <normalized growth>
0.77

$$$$
>  <Compound>
[N-]=[N+]=CC(=O)OCC(N)C(=O)O (stereo not given)

>  <normalized growth>
1

$$$$

Source: PubChem BioAssay AID1159580
